Experiment: Phase I study CXR1002-001: plasma pharmacokinetics (LC-MS/MS)
Format: in vivo, human
Conditions: human, plasma, po, 1200 mg, Patient 037, 1200 mg weekly oral dose, Time 192 hr (Day 9); read-out: Concentration (plasma level)
observation.type: concentration at 192 h

Query :: Can you look up the measured concentration at 192 h of "O=C(O)C(F)(F)C(F)(F)C(F)(F)C(F)(F)C(F)(F)C(F)(F)C(F)(F)F" for me?
Result :: 841 µM

* * *

Test: Phase I study CXR1002-001: plasma pharmacokinetics (LC-MS/MS)
Type: in vivo, human
Conditions: human, plasma, oral, 200 mg, Patient 010 Dose 200 mg; 672 hr (Day 29); read-out: Concentration
observation.type: concentration at 672 h (µM)
Give bare numbers, in µM.

Query :: Give its concentration at 672 h value. Item: O=C(O)C(F)(F)C(F)(F)C(F)(F)C(F)(F)C(F)(F)C(F)(F)C(F)(F)F [CXR1002]
Result :: 192

* * *

Assay: Phase I study CXR1002-001: plasma pharmacokinetics (LC-MS/MS)
Assay type: in vivo, human
Settings: human, plasma, po, 1200 mg, Patient 036, 1200 mg weekly oral dose, Time 168 hr (Day 8); read-out: Concentration (plasma level)
observation.type: concentration at 168 hr (µM)
Give bare numbers, in µM.

Query :: Entry under review: "O=C(O)C(F)(F)C(F)(F)C(F)(F)C(F)(F)C(F)(F)C(F)(F)C(F)(F)F" . Reported concentration at 168 hr?
Result :: 286

* * *

Experiment: Phase I study CXR1002-001: plasma pharmacokinetics (LC-MS/MS)
Format: in vivo, human
Conditions: human, plasma, oral, 600 mg, Patient 021, 600 mg, person, plasma, 171 hr; read-out: Concentration
observation.type: concentration at 171 h
Report the figure along with its unit, number first.

Query :: Query: concentration at 171 h; subject: O=C(O)C(F)(F)C(F)(F)C(F)(F)C(F)(F)C(F)(F)C(F)(F)C(F)(F)F [CXR1002]
Result :: 417 µM

* * *

Assay: Phase I study CXR1002-001: plasma pharmacokinetics (LC-MS/MS)
Assay type: in vivo, human
Conditions: human, plasma, oral, 300 mg, Patient 014 Dose 300 mg; 844 hr; read-out: Concentration
observation.type: concentration at 844 h (µM)
Numbers only, in µM.

Query :: Which concentration at 844 h is listed for O=C(O)C(F)(F)C(F)(F)C(F)(F)C(F)(F)C(F)(F)C(F)(F)C(F)(F)F [CXR1002] ?
Result :: 563

* * *

Test: Phase I study CXR1002-001: plasma pharmacokinetics (LC-MS/MS)
Format: in vivo, human
Conditions: human, plasma, oral, 600 mg, Patient 021, 600 mg, person, plasma, 508 hr; read-out: Concentration
observation.type: concentration at 508 h (µM)
Give bare numbers, in µM.

Query :: concentration at 508 h lookup needed for "O=C(O)C(F)(F)C(F)(F)C(F)(F)C(F)(F)C(F)(F)C(F)(F)C(F)(F)F" , thanks.
Result :: 722

* * *

Assay: Phase I study CXR1002-001: plasma pharmacokinetics (LC-MS/MS)
Assay type: in vivo, human
Conditions: human, plasma, po, 1200 mg, Patient 036, 1200 mg weekly oral dose, Time 24 hr (Day 2); read-out: Concentration (plasma level)
observation.type: concentration at 24 hr (µM)
Give bare numbers, in µM.

Query :: Value lookup for concentration at 24 hr; key = "O=C(O)C(F)(F)C(F)(F)C(F)(F)C(F)(F)C(F)(F)C(F)(F)C(F)(F)F"
Result :: 708

* * *

Experiment: Phase I study CXR1002-001: plasma pharmacokinetics (LC-MS/MS)
Format: in vivo, human
Details: human, plasma, oral, 600 mg, Patient 021, 600 mg, person, plasma, 168 hr (Day 8); read-out: Concentration
observation.type: concentration at 168 h (µM)
Give bare numbers, in µM.

Query :: Given the molecule O=C(O)C(F)(F)C(F)(F)C(F)(F)C(F)(F)C(F)(F)C(F)(F)C(F)(F)F [CXR1002] , what is its reported concentration at 168 h?
Result :: 218

* * *

Assay: Dietary APFO (300 ppm) study in rats: plasma glucose, triglycerides, cholesterol, AST, ALT, APFO level
Assay type: in vivo, rat
Details: male, Sprague Dawley, rat, oral, 300 ppm in diet, week 2
observation.type: concentration at 2 weeks
Phrase the answer as number then unit, nothing more needed.

Query :: Reported concentration at 2 weeks for O=C(O)C(F)(F)C(F)(F)C(F)(F)C(F)(F)C(F)(F)C(F)(F)C(F)(F)F [APFO, Ammonium Perfluorooctanoate] : what is it?
Result :: 157 µM

* * *

Test: Phase I study CXR1002-001: plasma pharmacokinetics (LC-MS/MS)
Format: in vivo, human
Conditions: human, plasma, oral, 600 mg, Patient 020, 600 mg, person, plasma, 339 hr; read-out: Concentration
observation.type: concentration at 339 h (µM)
Give bare numbers, in µM.

Query :: Form field: reported concentration at 339 h of "O=C(O)C(F)(F)C(F)(F)C(F)(F)C(F)(F)C(F)(F)C(F)(F)C(F)(F)F"
Result :: 434

* * *

Experiment: Phase I study CXR1002-001: plasma pharmacokinetics (LC-MS/MS)
Assay type: in vivo, human
Details: human, plasma, oral, 300 mg, Patient 014 Dose 300 mg; 506 hr; read-out: Concentration
observation.type: concentration at 506 h (µM)
Numbers only, in µM.

Query :: What does the record list as concentration at 506 h for "O=C(O)C(F)(F)C(F)(F)C(F)(F)C(F)(F)C(F)(F)C(F)(F)C(F)(F)F" ?
Result :: 336

* * *

Assay: Phase I study CXR1002-001: plasma pharmacokinetics (LC-MS/MS)
Assay type: in vivo, human
Details: human, plasma, oral, 450 mg, Patient 015 Dose 450 mg; 676 hr; read-out: Concentration
observation.type: concentration at 676 h (µM)
Numbers only, in µM.

Query :: So what does the record say about concentration at 676 h for "O=C(O)C(F)(F)C(F)(F)C(F)(F)C(F)(F)C(F)(F)C(F)(F)C(F)(F)F" ?
Result :: 675

* * *

Assay: Phase I study CXR1002-001: plasma pharmacokinetics (LC-MS/MS)
Assay type: in vivo, human
Details: human, plasma, oral, 950 mg, Patient 029, 950 mg, person, plasma, 168 hr (Day 8); read-out: Concentration
observation.type: concentration at 168 h
# output: numeric value plus its unit

Query :: Suppose we examine the compound "O=C(O)C(F)(F)C(F)(F)C(F)(F)C(F)(F)C(F)(F)C(F)(F)C(F)(F)F" ; what concentration at 168 h value has been reported?
Result :: 289 µM

* * *

Assay: Phase I study CXR1002-001: plasma pharmacokinetics (LC-MS/MS)
Format: in vivo, human
Conditions: human, plasma, oral, 600 mg, Patient 020, 600 mg, person, plasma, 168 hr (Day 8); read-out: Concentration
observation.type: concentration at 168 h (µM)
Numbers only, in µM.

Query :: Quick check: concentration at 168 h of "O=C(O)C(F)(F)C(F)(F)C(F)(F)C(F)(F)C(F)(F)C(F)(F)C(F)(F)F" ?
Result :: 125

* * *

Assay: Phase I study CXR1002-001: plasma pharmacokinetics (LC-MS/MS)
Type: in vivo, human
Details: human, plasma, oral, 750 mg, Patient 026, 750 mg, person, plasma, 696 hr (Day 30); read-out: Concentration
observation.type: concentration at 696 h (µM)
Answers are plain numbers, in µM.

Query :: Returns the measured concentration at 696 h for the input compound. Input: "O=C(O)C(F)(F)C(F)(F)C(F)(F)C(F)(F)C(F)(F)C(F)(F)C(F)(F)F"
Result :: 732

* * *

Experiment: Phase I study CXR1002-001: plasma pharmacokinetics (LC-MS/MS)
Format: in vivo, human
Conditions: human, plasma, oral, 200 mg, Patient 009 Dose 200 mg; 675 hr; read-out: Concentration
observation.type: concentration at 675 h (µM)
Answers are plain numbers, in µM.

Query :: Entry "O=C(O)C(F)(F)C(F)(F)C(F)(F)C(F)(F)C(F)(F)C(F)(F)C(F)(F)F" has what concentration at 675 h?
Result :: 261

* * *

Experiment: Phase I study CXR1002-001: plasma pharmacokinetics (LC-MS/MS)
Type: in vivo, human
Conditions: human, plasma, oral, 50 mg, Patient 002 Dose 50 mg; 1 hr
observation.type: concentration at 1 h (µM)
Give bare numbers, in µM.

Query :: I am curious: what concentration at 1 h value has been reported for "O=C(O)C(F)(F)C(F)(F)C(F)(F)C(F)(F)C(F)(F)C(F)(F)C(F)(F)F" ?
Result :: 8.55

* * *

Assay: Phase I study CXR1002-001: plasma pharmacokinetics (LC-MS/MS)
Assay type: in vivo, human
Conditions: human, plasma, po, 1200 mg, Patient 036, 1200 mg weekly oral dose, Time 3 hr; read-out: Concentration (plasma level)
observation.type: concentration at 3 hr (µM)
Numbers only, in µM.

Query :: May I ask what concentration at 3 hr has been recorded for "O=C(O)C(F)(F)C(F)(F)C(F)(F)C(F)(F)C(F)(F)C(F)(F)C(F)(F)F" ?
Result :: 431
